As a worked illustration, we turn to Ki data collected for Adenosine receptor A2a (Homo sapiens).
Respond with a number, then the unit of measure.

{"SMILES_REPR": "Cc1[nH]c2nc(-c3ccccc3)nc(NCCN3CCNC3=O)c2c1C", "REPORTED_RESULT": "215 nM"}
{"SMILES_REPR": "Cc1[nH]c2nc(-c3ccccc3)nc(N[C@H](CO)CC(C)C)c2c1C", "REPORTED_RESULT": "1140 nM"}

Now let's try a different one.
Tell me Ki of CC(=O)NCCNc1nc(-c2ccccc2)nc2[nH]c(C)c(C)c12 when tested on Adenosine receptor A2a (Homo sapiens).
Sequence (P29274 whole entry): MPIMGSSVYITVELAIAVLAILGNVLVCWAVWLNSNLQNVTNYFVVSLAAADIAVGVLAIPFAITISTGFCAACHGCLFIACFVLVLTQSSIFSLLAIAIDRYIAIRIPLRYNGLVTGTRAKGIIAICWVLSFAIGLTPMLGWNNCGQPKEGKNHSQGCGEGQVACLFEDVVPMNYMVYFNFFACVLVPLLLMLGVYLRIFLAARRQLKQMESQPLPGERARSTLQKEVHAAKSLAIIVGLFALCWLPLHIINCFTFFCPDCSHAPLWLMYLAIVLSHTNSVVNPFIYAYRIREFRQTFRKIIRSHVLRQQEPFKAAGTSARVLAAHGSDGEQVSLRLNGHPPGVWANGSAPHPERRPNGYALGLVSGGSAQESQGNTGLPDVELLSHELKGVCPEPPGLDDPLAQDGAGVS
23 nM
